Experiment: in vitro
Settings: PAMPA, pH 7.4
Description: Permeability of the compound at 25 ug/ml at pH 7.4 after 16 hrs by PAMPA

{"columns": ["cpd.smiles", "reading.unit", "Papp at 16 h, 25 ug/ml"],
 "data": [
  ["O=c1oc2cc(OCCNC3CCN(Cc4ccccc4)CC3)ccc2c2c1CCCC2", "×10⁻⁶ cm/s", 16.2]
]}

---

Molecular target: Cholinesterase (Homo sapiens, UniProt P06276)
Sequence (P06276 whole entry): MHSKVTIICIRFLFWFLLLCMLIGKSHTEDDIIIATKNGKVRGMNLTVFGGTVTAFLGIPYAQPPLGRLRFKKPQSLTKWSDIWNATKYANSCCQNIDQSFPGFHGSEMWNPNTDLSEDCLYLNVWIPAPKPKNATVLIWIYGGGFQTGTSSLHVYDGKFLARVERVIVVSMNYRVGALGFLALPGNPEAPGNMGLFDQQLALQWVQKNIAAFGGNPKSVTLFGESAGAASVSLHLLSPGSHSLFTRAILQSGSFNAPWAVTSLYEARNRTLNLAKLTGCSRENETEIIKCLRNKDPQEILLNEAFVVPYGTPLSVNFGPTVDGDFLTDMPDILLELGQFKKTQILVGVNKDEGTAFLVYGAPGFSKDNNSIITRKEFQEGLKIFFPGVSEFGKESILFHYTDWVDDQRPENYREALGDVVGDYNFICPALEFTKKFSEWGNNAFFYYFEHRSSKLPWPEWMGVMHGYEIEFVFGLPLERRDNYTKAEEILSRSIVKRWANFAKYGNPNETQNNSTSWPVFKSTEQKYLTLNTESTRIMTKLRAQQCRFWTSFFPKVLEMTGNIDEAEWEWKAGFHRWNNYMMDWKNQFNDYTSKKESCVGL
pIC50: −log10 of the molar value.
Below, each entry is listed with its recorded pIC50.

{"columns": ["cpd.smiles", "pIC50"],
 "data": [
  ["Cc1c(Cl)c(=O)oc2cc(OCCNC3CCN(Cc4ccccc4)CC3)ccc12", 5.77],
  ["Cc1cc(=O)oc2cc(CNCCC3CCN(Cc4ccccc4)CC3)ccc12", 5.46],
  ["Cc1c(C)c2ccc(OCCNC3CCN(Cc4ccccc4)CC3)cc2oc1=O", 5.57],
  ["O=c1oc2cc(OCCNC3CCN(Cc4ccccc4)CC3)ccc2c2c1CCCC2", 5.70],
  ["O=c1cc(Cl)c2ccc(OCCNC3CCN(Cc4ccccc4)CC3)cc2o1", 5.53]
]}

---

Test: Hepatotoxicity against human HepG2 cells assessed as cell viability at 50 uM after 24 hrs by MTT assay
Format: toxicity, cell-based
Conditions: read-out: Activity
property.measured: viability at 24 h, 50 µM (%)

{"columns": ["cpd.smiles", "property.measured", "reading.unit", "reported.value"],
 "data": [
  ["O=c1oc2cc(OCCNC3CCN(Cc4ccccc4)CC3)ccc2c2c1CCCC2", "viability at 24 h, 50 µM", "%", 104]
]}

---

Dear all, this message contains IC50 results, target or system Acetylcholinesterase (Homo sapiens, UniProt P22303).
property.measured: IC50 (nM)

{"columns": ["cpd.smiles", "reported.value"],
 "data": [
  ["Cc1cc(=O)oc2cc(CNCCC3CCN(Cc4ccccc4)CC3)ccc12", 67],
  ["Cc1c(Cl)c(=O)oc2cc(OCCNC3CCN(Cc4ccccc4)CC3)ccc12", 1820],
  ["O=c1cc(Cl)c2ccc(OCCNC3CCN(Cc4ccccc4)CC3)cc2o1", 2040],
  ["Cc1c(C)c2ccc(OCCNC3CCN(Cc4ccccc4)CC3)cc2oc1=O", 1690],
  ["O=c1oc2cc(OCCNC3CCN(Cc4ccccc4)CC3)ccc2c2c1CCCC2", 1370]
]}

---

Test: Cytotoxicity against human SH-SY5Y cells assessed as cell viability at 5 uM after 24 hrs by MTT assay
Format: cell-based
Settings: read-out: Activity

{"columns": ["cpd.smiles", "viability at 24 h, 5 µM (%)"],
 "data": [
  ["O=c1oc2cc(OCCNC3CCN(Cc4ccccc4)CC3)ccc2c2c1CCCC2", 102]
]}

---

Let's go through some recorded pIC50 values for Acetylcholinesterase (Electrophorus electricus) together.
pIC50: −log10 of the molar value.
property.measured: pIC50

{"columns": ["cpd.smiles", "property.measured", "reported.value"],
 "data": [
  ["O=c1cc(-c2ccccc2)c2ccc(OCCNC3CCN(Cc4ccccc4)CC3)cc2o1", "pIC50", 5.02],
  ["Cc1cc(=O)oc2cc(CNC3CCN(Cc4ccccc4)CC3)ccc12", "pIC50", 5.14],
  ["CCOc1cc(=O)oc2cc(OCCNC3CCN(Cc4ccccc4)CC3)ccc12", "pIC50", 5.20],
  ["O=c1cc(C(F)(F)F)c2ccc(OCCNC3CCN(Cc4ccccc4)CC3)cc2o1", "pIC50", 5.04],
  ["O=c1oc2cc(OCCNC3CCN(Cc4ccccc4)CC3)ccc2c2c1CCCC2", "pIC50", 6.06],
  ["O=c1ccc2ccc(OCCNC3CCN(Cc4ccccc4)CC3)cc2o1", "pIC50", 5.35],
  ["COc1cc(=O)oc2cc(OCCNC3CCN(Cc4ccccc4)CC3)ccc12", "pIC50", 5.20],
  ["O=c1ccc2ccc(OCCNCCC3CCN(Cc4ccccc4)CC3)cc2o1", "pIC50", 5.05],
  ["O=c1ccc2ccc(OCCCNC3CCN(Cc4ccccc4)CC3)cc2o1", "pIC50", 4.93],
  ["Cc1cc2ccc(OCCNC3CCN(Cc4ccccc4)CC3)cc2oc1=O", "pIC50", 5.22]
]}
